Tested on: MCF-10A
experimental details: normalised response (% of control), CellTiter-Glo; higher = more viable cells (100 = DMSO, 0 = benzethonium chloride kill control)
details: incubation time: 72 h
normalised response: recorded values
Enter your answer as a number in %; do not include the unit.

Solved entries (count: 3):
[[record]]
compound = "CCOc1cc2ncc(C#N)c(Nc3ccc(OCc4ccccn4)c(Cl)c3)c2cc1NC(=O)/C=C/CN(C)C [Neratinib] (0.1 nM)"
number = 104

[[record]]
compound = "Nc1nccc(-c2c(-c3ccc(F)cc3)ncn2C2CCCCC2)n1 (10 nM)"
number = 111

[[record]]
compound = "O=C(c1ccc(OCCN2CCCCC2)cc1)c1c(-c2ccc(O)cc2)sc2cc(O)ccc12 [Raloxifene] (10 nM)"
number = 106


Ask: Specify measured normalised response for COc1c(C)cnc(Cn2cnc3c(Cl)nc(N)nc32)c1C [BIIB021] (10 nM) .
Reply: 96.6

Ask: Specify measured normalised response for Cc1cc(C(C)Nc2ccccc2)c2nc(N3CCOCC3)cc(=O)n2c1 (stereo not drawn) [TGX-221] (1000 nM) .
Reply: 93.8

Ask: Specify measured normalised response for COc1cccc2c1C(=O)c1c(O)c3c(c(O)c1C2=O)C[C@@](O)(C(C)=O)C[C@@H]3O[C@H]1C[C@H](N)[C@H](O)[C@H](C)O1 [Daunorubicin] (0.1 nM) .
Reply: 112

Ask: Specify measured normalised response for O=c1[nH]c(=O)n([C@H]2C[C@H](O)[C@@H](CO)O2)cc1F [Floxuridine] (1 nM) .
Reply: 115

Ask: Specify measured normalised response for COc1cccc2c1C(=O)c1c(O)c3c(c(O)c1C2=O)C[C@@](O)(C(C)=O)C[C@@H]3O[C@H]1C[C@H](N)[C@H](O)[C@H](C)O1 [Daunorubicin] (1 nM) .
Reply: 107

Ask: Specify measured normalised response for COc1ccc(C2=N[C@@H](c3ccc(Cl)cc3)[C@@H](c3ccc(Cl)cc3)N2C(=O)N2CCNC(=O)C2)c(OC(C)C)c1 [Nutlin-3] (10 nM) .
Reply: 99.6

Ask: Specify measured normalised response for CCCC(CCC)C(=O)O [Valproic acid] (100 nM) .
Reply: 101

Ask: Specify measured normalised response for CC(C)C[C@H](NC(=O)[C@H](Cc1ccccc1)NC(=O)c1cnccn1)B(O)O [Bortezomib] (1 nM) .
Reply: 102

Ask: Specify measured normalised response for CN1CCN(c2ccc3nc(-c4c(N)c5c(F)cccc5[nH]c4=O)[nH]c3c2)CC1 [Dovitinib] (10 nM) .
Reply: 98.3

Ask: Specify measured normalised response for COc1cccc2c1C(=O)c1c(O)c3c(c(O)c1C2=O)C[C@@](O)(C(C)=O)C[C@@H]3O[C@H]1C[C@H](N)[C@H](O)[C@H](C)O1 [Daunorubicin] (100 nM) .
Reply: 103

Ask: Specify measured normalised response for COC(=O)C[C@](O)(CCCC(C)(C)O)C(=O)O[C@@H]1C(OC)=C[C@]23CCCN2CCc2cc4c(cc2[C@H]13)OCO4 [Omacetaxine] (1 nM) .
Reply: 108

Ask: Specify measured normalised response for COc1ncc(-c2ccc3nccc(-c4ccnnc4)c3c2)cc1NS(=O)(=O)c1ccc(F)cc1F (1 nM) .
Reply: 94.2

Ask: Specify measured normalised response for C[C@@H]1C=C2C(=O)O[C@@H]3CC[C@H](C1)[C@]23O [Galiellalactone] (5000 nM) .
Reply: 105

Ask: Specify measured normalised response for Cn1cnc2c(F)c(Nc3ccc(Br)cc3F)c(C(=O)NOCCO)cc21 [MEK-162] (1 nM) .
Reply: 96.1

Ask: Specify measured normalised response for CC(C)(C)c1cc(NC(=O)Nc2ccc(-c3cn4c(n3)sc3cc(OCCN5CCOCC5)ccc34)cc2)no1 [Quizartinib] (1 nM) .
Reply: 110

FYI, the data here is from the supplement of paper PMC4862054.
